Property: melting point; scope: individual molecules

chemSmiles	melting point
CN(C)/N=N/c1ccsc1C(=O)[O-].[K+]	274 to 280 °C
CN(C)/N=N/c1cc(-c2ccccc2)sc1C(=O)O	162 to 166 °C

Exam item: Give reported melting point value for CN(C)/N=N/c1cscc1C(N)=O
Marked response: 168 to 172 °C

Exam item: Give reported melting point value for CN(C)/N=N/c1ccsc1C(=O)O
Marked response: 108 to 110 °C

Exam item: Give reported melting point value for CN(C)/N=N/c1csc(C(N)=O)c1
Marked response: 128 to 130 °C

Exam item: Give reported melting point value for Cn1nnc2sc(N)cc2c1=O
Marked response: 190 to 194 °C

Exam item: Give reported melting point value for CN(C)/N=N/c1cc(-c2ccccc2)sc1C(N)=O
Marked response: 220 to 222 °C

Exam item: Give reported melting point value for CNC(=O)c1sccc1/N=N/N(C)C
Marked response: 98 to 102 °C

Exam item: Give reported melting point value for CN(C)/N=N/c1ccsc1C(N)=O
Marked response: 168 to 170 °C

Exam item: Give reported melting point value for CN(C)/N=N/c1cc([N+](=O)[O-])sc1C(=O)O
Marked response: 184 to 186 °C

Exam item: Give reported melting point value for CN(C)/N=N/c1ccsc1C(=O)NCCO
Marked response: 118 to 122 °C

Exam item: Give reported melting point value for Cn1nnc2cc(-c3ccccc3)sc2c1=O
Marked response: 220 to 222 °C

Exam item: Give reported melting point value for CN(C)/N=N/c1c(Br)csc1C(N)=O
Marked response: 194 to 196 °C

Exam item: Give reported melting point value for COc1c(C(N)=O)sc(C(N)=O)c1/N=N/N(C)C
Marked response: 226 to 228 °C

---

System: A2058, human malignant melanoma cells
Assay: MTT cell proliferation assay in A2058 cells
Type: cell-based
Conditions: A2058, 72 h, three days exposure
Procedure: MTT [3-(4,5-dimethylthiazol-2-yl)-2,5-diphenyltetrazolium bromide] incorporation based cell proliferation assay was performed using standard procedure with some modifications (38). The cytotoxic efficacy of the test compounds were evaluated in human malignant melanoma A2058 cells by MTT cell proliferation assay kit (Roche Applied Sciences, Germany). […] After complete solubilization of the formazan crystals the absorbance was read at 540 nm in a microplate reader (BioRad, USA). […]
metricName: IC50 (µg/mL)

Known results for compounds:
chemSmiles	targetEntity	IC50 / µg/mL
CN(C)/N=N/c1ccsc1C(N)=O	A2058, human malignant melanoma cells	78.7
Cn1nnc2sc(N)cc2c1=O	A2058, human malignant melanoma cells	147

P: CNC(=O)c1sccc1/N=N/N(C)C
Q: CN(C)/N=N/c1cscc1C(N)=O
Exam item: Which item exceeds the other in IC50, P or Q ? Give the chosen item's label as your response.
Marked response: P

---

Tested on: A2058, human malignant melanoma cells
Assay: MTT cell proliferation assay in A2058 cells
Format: cell-based
Conditions: A2058, 72 h, three days exposure
metricName: IC50 (µg/mL)

Known results for compounds:
compound	metricName	reading
CN(C)/N=N/c1[nH]cnc1C(N)=O [DTIC, reference compound]	IC50	68.1
CN(C)/N=N/c1ccsc1C(=O)NCCN	IC50	164
CN(C)/N=N/c1csc(C(N)=O)c1	IC50	165

a: CN(C)/N=N/c1ccsc1C(=O)O
b: CN(C)/N=N/c1ccsc1C(=O)NCCO
c: CN(C)/N=N/c1c(Br)csc1C(N)=O
Exam item: Ascending by IC50, please: list the compounds accordingly. A complete answer lists every label in the requested sequence.
Marked response: a, c, b
